B1: LINE1-mini (parent)
chain: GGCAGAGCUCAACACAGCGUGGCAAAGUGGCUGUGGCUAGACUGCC

variants of: B1; test: self-cleavage, relative activity (ratio to wild type); higher = more cleavage; in vitro, sequencing; the parent is a self-cleaving ribozyme
Would you mind labelling by self-cleavage? At or over 0.08 is 1, under is 0.

Problem: API: above_or_equal(metric=self-cleavage, cutoff=0.08) for item G19C G44C
Result: 1

Problem: Say whether G21C U34A shows self-cleavage of 0.08 or more.
Result: 1

Problem: Is self-cleavage for G17C G29A at or above 0.08?
Result: 1

Problem: Is self-cleavage at least 0.08? Consider C18G G22C
Result: 1

Problem: Does self-cleavage meet or surpass 0.08 for A16U G35A ?
Result: 0

Problem: Item C8U C23G with self-cleavage of 0.08 or above?
Result: 1

Problem: Entry U34C G40C : is its self-cleavage no less than 0.08?
Result: 0

Problem: Textbook exercise: given the entry C42G C45A , state whether its self-cleavage is greater than or equal to 0.08.
Result: 0

Problem: Quick check: does G27A G35C have self-cleavage greater than or equal to 0.08?
Result: 1

Problem: I'd appreciate it if you could say whether G35U C37G has self-cleavage at least equal to 0.08.
Result: 0

Problem: Decide: is the reported value of self-cleavage for C8A A12U equal to or greater than 0.08?
Result: 1

Problem: Does the reported self-cleavage for C23G C31G fall at or above the 0.08 mark?
Result: 0

Problem: self-cleavage >= 0.08 for C10G C13U ?
Result: 0

Problem: # bool: self-cleavage of G17A G22U >= 0.08
Result: 1

Problem: In plain terms: is recorded self-cleavage at least 0.08 for U9G A14C ?
Result: 1

Problem: Given the entry G5C A26C , answer whether its self-cleavage meets or surpasses 0.08.
Result: 0

Problem: Reported self-cleavage reaches at least 0.08 for C8A U34A ?
Result: 1

Problem: Would you say A6C G7A shows self-cleavage at minimum 0.08?
Result: 1

Problem: Could you verify whether the entry G1U U20C shows self-cleavage of no less than 0.08?
Result: 1
